test system: SN12C; assay: NCI tumour cell line growth inhibition, 48 h
Activity calls are given as the source filed them. Cut-off read from the data, not from the text of the source: active = GI50 up to about 1.1 µM and inactive = higher.
Entries annotated with measured GI50

Molecule	System	GI50
O=C1C(=C2CCCC2)CCC1CN1CCCCC1 (centres undefined)	SN12C	16.8 µM (inactive)
C/C=C/C=C\C=C/C(O)C(C)C(CCC(C)C1OC(=O)C=CC1C)OP(=O)(O)O (centres undefined)	SN12C	0.323 µM (active)
CCCCCCc1cc2cc(-c3csc(-c4ccc(OC)cc4)n3)c(=O)oc2cc1O	SN12C	10.4 µM (inactive)
COC(=O)[C@H](Cc1ccccc1)NP(=O)(O)OCC1C=CC(n2cc(C)c(=O)[nH]c2=O)O1 (some centres undefined)	SN12C	> 100 µM (inactive)
C=CCN1C(=O)CC1N(CC=C)S(=O)(=O)c1ccc(C)cc1 (centres undefined)	SN12C	61.7 µM (inactive)
CC1=C(C(=O)NCc2ccccc2)C(c2ccco2)C(C(=O)NCc2ccccc2)=C(C)N1	SN12C	91.6 µM (inactive)
Cc1ccc(S(=O)(=O)CNC(=S)CCCC(=S)NCS(=O)(=O)c2ccc(C)cc2)cc1	SN12C	> 100 µM (inactive)
N=C(N)N/N=C\c1c(-c2cccc([N+](=O)[O-])c2)nc2sc(Cl)cn12	SN12C	2.6 µM (inactive)
CC(C)CCCC(C)[C@H]1CCC(C2C[C@@H](O)[C@@H]3CC(O)[C@@H](O)C[C@]3(CO)C2=O)[C@]1(C)CCO (some centres undefined)	SN12C	30.2 µM (inactive)
